# key: entry, value: %Inh
System: ERBB2;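 further: KINOMEscan kinase panel screen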
Details: concentration: 1 μM,replicates: in singlicate; n = 1
Please respond with the number in % and leave the unit unwritten.

Known %Inh results, listed for orientation:
CS(=O)(=O)c1cccc(CNc2nc(Nc3ccc4c(c3)[C@@H]3C[C@@H]4CNC3=O)ncc2C(F)(F)F)c1    15
N#Cc1cccc(C(=O)NC2CCN(c3ccnc(Nc4ccc(F)cc4)n3)C2)c1 (stereo not shown)    9
Cc1nnc(-c2ccc3occ(-c4ccc(S(C)=O)cc4)c3n2)o1 (stereo not shown)    17

Turning now to a further compound:
Can you look up the measured %Inh of Cc1ccc2c(-c3ccnc(Nc4ccc(C(F)(F)F)cc4)n3)cnn2n1 for me? 0
